- test system: T1, CD27 protein (His-tagged, Sino Biological Inc. 10039-H08B1) (human, UniProt P26842 20-192)
- T1 construct: bought; coated onto ELISA plates; also called human CD27; recombinant protein; not shown: His tag
- T1 sequence (looked up): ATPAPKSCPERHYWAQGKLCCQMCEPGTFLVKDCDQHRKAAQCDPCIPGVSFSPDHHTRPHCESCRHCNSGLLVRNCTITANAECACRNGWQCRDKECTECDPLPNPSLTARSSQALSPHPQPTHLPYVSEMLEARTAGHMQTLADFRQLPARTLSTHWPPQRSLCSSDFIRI
- measurement protocol: ELISA on coated His-tagged CD27; note: test concentration or dose not given here
measured quantity: ELISA [abs. corr.] (abs. corr.)

[[record]]
binder = "P018.S.03.A.F02 (antibody, V domains shown, V regions on human Ig constant parts; also called AB27_53) VH: QSVEESGGRLVTPGTPLTLTCTVSGFSLSSNAMTWVRQAPGKGLEWIGFINTGGSTYYASWAKGRFTISKTSTTVDLKITSPTTEDTATYFCARDVGDSRGYYWGLWGQGTLVTVSS VL: AYDMTQTPASVPAAVGGTVTIKCQASEDIYSLLAWYQQKPGQPPKLLIYDASDLASGVPSRFRGSGSGTDYTLTISGVESADAATYYCQQGYTTYTTVDNIFGGGTEVVVK"
numeric_result = 3.46

[[record]]
binder = "P018.S.04.A.E02 (antibody, V domains shown, V regions on human Ig constant parts; also called AB27_74) VH: QSVEESGGRLVTPGTPLTLTCTVSGFSLNNYDMNWVRQAPGKGLEWVGYIDTGGSAYYASWVNGRFTISKTSTTVELKMTSLTASDTATYFCARGYTHGYLWGQGTLVTVSS VL: ALVMTQTPSSVSAAVGGTVTINCQASQNVYNNLAWYQQKPGQPPKLLIDSASTLASGVSSRFKGSGSGTEFTLTISDLESADAATYYCQSADWESSNFFWAFGGGTEVVVK"
numeric_result = 3.52

[[record]]
binder = "P018.S.02.A.H05 (antibody, V domains shown, V regions on human Ig constant parts; also called AB27_40) VH: QSLEESGGDLVKPGASLTLTCTASGIDFSSSSMCWVRQAPGKGLEWIACIDTGSSGRTDYASWAKGRFTLSKTSATTVTLQMTSLTAADTATYFCTRYGDYAGYGYDSFDPWGPGTLVTVSS VL: AQVLTQTPSSVSAAVGGTVTINCQASQNINNWCSWYQQKPGQPPKLLIAYASTLASGVSSRFKGSGSGTQFTLTISGVQSDDAATYYCQQTFDCTDVENVFGGGTEVVVK"
numeric_result = 3.38

[[record]]
binder = "P018.S.02.A.F05 (antibody, V domains shown, V regions on human Ig constant parts; also called AB27_35) VH: QEQLVESGGDLVKPEGSLTLTCTASGFSFSSSYYMSWVRQAPGKGLEWIACIDTVDNYTYYASWAKGRFTISKTSSTTVSLQMTSLTAADTATYFCARERIAYNTDYFNLWGPGTLVTVSS VL: AQVLTQTPSPVSAAVGGTVTISCQSSQSLYNYNNLAWYQQKPGQPPKLLIYSASNLASGVPSRFGGSGSGTQFTLTISDLQSDDAATYYCQGYYSGAVYTFGGGTEVVVK"
numeric_result = 3.44

[[record]]
binder = "P018.S.03.A.H04 (antibody, V domains shown, V regions on human Ig constant parts; also called AB27_62) VH: QSLEESGGRLVTPGTPLTLTCTASGFSLSNYSMNWVRQAPGKGLEWIGIINTYGSAYYASWAKGRFTISKTSTTVDLKMTSLTTEDTATYFCARDAGGSTVPWFFDVWGPGTLVTVSS VL: AYDMTQTPASVEVAVGGTVTIKCQASQTISNYLAWYQQKPGQRPKLLIYDASKLASGVPSRFDGSGSGTEYTLTISGVGSADAATYYCQQGYADSNVDNVFGGGTEVVVK"
numeric_result = 3.59

[[record]]
binder = "P018.S.07.A.G04 (antibody, V domains shown, V regions on human Ig constant parts; also called AB27_130) VH: QSLEESGGRLVTPGTPLTLTCTVSGIDLSSYAMGWVRQAPGKGLEYIAIIYTTNRTHYATWAKGRFTISKSSTTVDLKATSLTTEDTATYFCGRYGRGSGGYYYGMDLWGPGTLVTVSS VL: DIVMTQTPASVEAAVGGTVTIKCQASQSGDNYCSWYQQKPGQPPKLLIYQASKLTSGVPSRFRGSRSGTEYTLTISDLESADAATYYCQNYCAGSGVCLGIAFGGGTEVVVK"
numeric_result = 3.16

[[record]]
binder = "P018.S.02.A.G03 (antibody, V domains shown, V regions on human Ig constant parts; also called AB27_38) VH: QSVEESGGRLVTPGTPLTLTCTVSGFSLSSYVMSWVRQAPGKGLEWIGYIDYGGTAYYASWAKGRFTISKTSTTVELKITSPTIEDTATYFCARGGYGGYILVTGLWGPGTLVTVSS VL: DIVMTQTPASVSEPVGGTVTIKCQASQTIISYLSWYQQKPGQPPKLLIYGASTLASGVPSRFKGSGSVTEYTLTISDLESADAATYYCQTYYGGGPFGNGFGGGTEVVVK"
numeric_result = 3.13

[[record]]
binder = "P018.S.10.A.C06 (antibody, V domains shown, V regions on human Ig constant parts; also called AB27_174) VH: QSLEESGGRLVTPGTPLTLTCTVSGIDLNNNAMTWVRQAPGEGLEWIGIISTADTTTYASWTKGRFTISKTSTTVDLKITSPTTEDTATYFCARAAYFSYGYFNLWGQGTLVTVSS VL: DIVMTQTPASVEAAVGGTVTIKCQASQNIGNALAWYQQKPGQPPKLLIYGASTLASGVPSRFKGSGSGTEFTLTISDLESADATTYFCQSYVYSDGNVFGGGTEVVVK"
numeric_result = 3.39

[[record]]
binder = "P018.S.02.A.B03 (antibody, V domains shown, V regions on human Ig constant parts; also called AB27_30) VH: QSLEESGGGLVKPGGTLTLTCTASGFSLSSTYMSWVRQAPGKGLEWIGDIYTDGSTYYASWVNGRFTISKTSTTVDLKMTSLTTEDTATYFCARGAAAAYDLWGQGTLVTVSS VL: AYDMTQTPASVSAAVGGTVTIKCQASQNIYTNLAWYQQKPGQPPKLLIYGVSNLESGVPSRFKGSGSGTQFTLTISGVQSDDAATYYCQQGYSSTNVENAFGGGTEVVVK"
numeric_result = 3.25

[[record]]
binder = "P018.S.09.A.H03 (antibody, V domains shown, V regions on human Ig constant parts; also called AB27_160) VH: QSLEESGGRLVTPDESLTLTCTVSGFSLSSNAMIWVRQAPGKGLEWIGIIDTGGSAYYASWAKGRFTISKTSTTVDLKITSPTTEDTATYFCARDRYTDSSGYNLWGQGTLVTVSS VL: DIVMTQTPASVEAAVGGTVTIKCQASQSIGASLAWYKQKPGQPPKLLIYSASWLASGVPSRFKGSGSGTEFTLTISDLASADAATYYCQSYYYRSSSGYGYAFGGGTEVVVK"
numeric_result = 3.54

